- study_system: His6-PDK1 (aa 52-556) (Homo sapiens)
- Construct: 15 μL His6-PDK1 (aa 52-556) 3.33 ng/well); host or cells: baculovirus-infected insect cells
- assay_name: PDK1 kinase assay III (with Tween 20)
- Type: biochemical
- experimental_setup: compound at 10 μM; PDK1 kinase assay III (values without asterisk); read-out: % CTL (residual activity of the enzyme relative to DMSO control)
readout_kind: remaining activity at 10 µM (%)
Reply with just the number (in %).

// solved cases for remaining activity at 10 µM follow
molecule	readout_kind	assay_result
CNC(=O)c1ccc(Nc2ncc3cc(/C=C/CNC(=O)c4c(C)n(C)n(Cc5ccc(F)c(F)c5)c4=O)ccc3n2)cc1Cl	remaining activity at 10 µM	18.6
CCN1CCC(NC(=O)c2ccc(Nc3ncc4cc(C#CCNC(=O)c5c(C)n(C)n(Cc6ccc(F)c(F)c6)c5=O)ccc4n3)cc2)CC1	remaining activity at 10 µM	13.7
CN(C)Cc1ccc(Nc2ncc3cc(/C=C/CNC(=O)c4cn(C)c(=O)n(Cc5ccc(F)c(F)c5)c4=O)ccc3n2)cc1	remaining activity at 10 µM	19.7
O=C1Nc2cc(/C=C/CNC(=O)C3CCN(Cc4ccc(F)c(F)c4)C3=O)ccc2/C1=C/c1cnc[nH]1 (stereo not shown)	remaining activity at 10 µM	21.7
Cc1c(C(=O)NCc2ccc(Nc3ncnc4[nH]c(-c5ccccc5)cc34)cc2)c(=O)n(Cc2ccc(F)c(F)c2)n1C	remaining activity at 10 µM	33.5
Cc1nc[nH]c1/C=C1\C(=O)Nc2cc(/C=C/CNC(=O)c3cncn(Cc4ccc(F)c(F)c4)c3=O)ccc21	remaining activity at 10 µM	16.4

[ask] # input molecule: `Cc1c(C(=O)NCC#Cc2ccc3nc(Nc4ccc(C(=O)NCCCN(C)C)cc4)ncc3c2)c(=O)n(Cc2ccc(F)c(F)c2)n1C` ; wanted: its remaining activity at 10 µM
[reply] 13.1

====

- study_system: His6-PDK1 (aa 52-556) (Homo sapiens, UniProt O15530)
- Construct: 15 μL His6-PDK1 (aa 52-556) 3.33 ng/well); host or cells: baculovirus-infected insect cells
- Sequence (O15530 52-556): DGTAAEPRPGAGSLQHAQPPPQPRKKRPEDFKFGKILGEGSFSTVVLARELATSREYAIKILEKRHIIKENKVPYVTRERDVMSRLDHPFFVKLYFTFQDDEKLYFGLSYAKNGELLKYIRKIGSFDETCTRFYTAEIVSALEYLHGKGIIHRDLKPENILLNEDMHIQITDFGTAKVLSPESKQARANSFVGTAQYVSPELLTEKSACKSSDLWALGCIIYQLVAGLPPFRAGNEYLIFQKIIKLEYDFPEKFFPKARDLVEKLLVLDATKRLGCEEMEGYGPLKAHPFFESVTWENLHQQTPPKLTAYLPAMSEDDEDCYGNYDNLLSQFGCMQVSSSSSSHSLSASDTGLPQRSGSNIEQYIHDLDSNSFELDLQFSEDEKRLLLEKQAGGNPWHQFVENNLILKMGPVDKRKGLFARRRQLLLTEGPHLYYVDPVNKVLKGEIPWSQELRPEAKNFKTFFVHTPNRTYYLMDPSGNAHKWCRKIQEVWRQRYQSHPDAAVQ
- assay_name: PDK1 kinase assay III (with Tween 20)
- Format: biochemical
- experimental_setup: compound at 10 μM; PDK1 kinase assay III (values without asterisk); read-out: % CTL (residual activity of the enzyme relative to DMSO control)
readout_kind: remaining activity at 10 µM (%)
Numeric only. Scale: %

// solved cases for remaining activity at 10 µM follow
smiles_string	remaining activity at 10 µM (%)
Cc1nc[nH]c1/C=C1\C(=O)Nc2cc(/C=C/CNC(=O)c3cncn(Cc4ccc(F)c(F)c4)c3=O)cc(F)c21	17.2
Cc1c(C(=O)NC/C=C/c2ccc3c(c2)NC(=O)/C3=C\c2ncc[nH]2)c(=O)n(Cc2ccc(F)c(F)c2)n1C	16.6
O=C(NCC#Cc1ccc2cn[nH]c2c1)c1cncn(Cc2ccc(F)c(F)c2)c1=O	12.5
CN(C)Cc1ccc(Nc2ncc3cc(/C=C/CNC(=O)c4nc(Cl)cn(Cc5ccc(F)c(F)c5)c4=O)ccc3n2)cc1	13.9
Cc1c(C(=O)NC/C=C\c2ccc3c(-c4ccco4)n[nH]c3c2)c(=O)n(Cc2ccc(F)c(F)c2)n1C	21.4
Cc1c(C(=O)NCC#Cc2ccc3nc(Nc4ccc(C(=O)NCCN(C)C)cc4)ncc3c2)c(=O)n(Cc2ccc(F)c(F)c2)n1C	10.8

[ask] Please give the measured remaining activity at 10 µM for this compound: `Cc1c(C(=O)NCC#Cc2cc(OC3CCNCC3)c3nc(Nc4ccc(N5CCOCC5)cc4)ncc3c2)c(=O)n(Cc2ccc(F)c(F)c2)n1C`
[reply] 12.3
